Entries and their Organ ratios: Blood-to-liver values follow.
tested on: non-tumor-bearing immunocompetent FVB mice; assay: Biodistribution of lanthanide chloride salts LnCl3 (multiplexed ICP-MS); type: in vivo; settings: 24 h p.i., estimated ratios (organ <0.5% ID/g)
Marks after values point to notes of the source that are not given here.
measure: Organ ratios: Blood-to-liver

>>> print(df.to_string())
                                   compound  value_measured
0        [Cl][Lu]([Cl])[Cl] [[^175Lu]LuCl3]         <0.05^*
1        [Cl][Tb]([Cl])[Cl] [[^159Tb]TbCl3]         <0.02^*
2        [Cl][Gd]([Cl])[Cl] [[^157Gd]GdCl3]         <0.02^*
3  [Cl-].[Cl-].[Cl-].[Eu+3] [[^153Eu]EuCl3]         <0.01^*

---

tested on: non-tumor-bearing immunocompetent FVB mice; assay: Biodistribution of lanthanide chloride salts LnCl3 (multiplexed ICP-MS); type: in vivo; details: 96 h p.i., non-tumor-bearing mice
This section presents molecules with their documented Tissue uptake: Intestines values.
measure: Tissue uptake: Intestines (% ID/g)

>>> df
                                   molecule                    measure  value_measured
0        [Cl][Gd]([Cl])[Cl] [[^157Gd]GdCl3]  Tissue uptake: Intestines            0.66
1  [Cl-].[Cl-].[Cl-].[Eu+3] [[^153Eu]EuCl3]  Tissue uptake: Intestines            0.53
2        [Cl][Lu]([Cl])[Cl] [[^175Lu]LuCl3]  Tissue uptake: Intestines            0.54
3        [Cl][Tb]([Cl])[Cl] [[^159Tb]TbCl3]  Tissue uptake: Intestines            0.52

---

Each entry below carries its reported Tissue uptake: Blood.
system: non-tumor-bearing immunocompetent FVB mice; test: Biodistribution of lanthanide chloride salts LnCl3 (multiplexed ICP-MS); type: in vivo; conditions: 24 h p.i., non-tumor-bearing mice
measure: Tissue uptake: Blood

>>> print(df.to_string())
                                   molecule               measure  value_measured
0        [Cl][Gd]([Cl])[Cl] [[^157Gd]GdCl3]  Tissue uptake: Blood     <0.5 % ID/g
1  [Cl-].[Cl-].[Cl-].[Eu+3] [[^153Eu]EuCl3]  Tissue uptake: Blood     <0.5 % ID/g
2        [Cl][Tb]([Cl])[Cl] [[^159Tb]TbCl3]  Tissue uptake: Blood     <0.5 % ID/g
3        [Cl][Lu]([Cl])[Cl] [[^175Lu]LuCl3]  Tissue uptake: Blood     <0.5 % ID/g

---

tested on: non-tumor-bearing immunocompetent FVB mice; test: Biodistribution of lanthanide chloride salts LnCl3 (multiplexed ICP-MS); assay type: in vivo; conditions: 1 h p.i., non-tumor-bearing mice
measure: Tissue uptake: Kidneys

>>> df
                                   compound    value_measured
0  [Cl-].[Cl-].[Cl-].[Eu+3] [[^153Eu]EuCl3]  8.1 ± 2.1 % ID/g
1        [Cl][Gd]([Cl])[Cl] [[^157Gd]GdCl3]  8.0 ± 2.0 % ID/g
2        [Cl][Lu]([Cl])[Cl] [[^175Lu]LuCl3]  7.3 ± 1.7 % ID/g
3        [Cl][Tb]([Cl])[Cl] [[^159Tb]TbCl3]  8.7 ± 2.5 % ID/g

---

tested on: non-tumor-bearing immunocompetent FVB mice; experiment: Biodistribution of lanthanide chloride salts LnCl3 (multiplexed ICP-MS); type: in vivo; conditions: 96 h p.i., non-tumor-bearing mice
measure: Tissue uptake: Bone (% ID/g)

                                   compound              measure  value_measured
0  [Cl-].[Cl-].[Cl-].[Eu+3] [[^153Eu]EuCl3]  Tissue uptake: Bone              18
1        [Cl][Lu]([Cl])[Cl] [[^175Lu]LuCl3]  Tissue uptake: Bone              35
2        [Cl][Gd]([Cl])[Cl] [[^157Gd]GdCl3]  Tissue uptake: Bone              17
3        [Cl][Tb]([Cl])[Cl] [[^159Tb]TbCl3]  Tissue uptake: Bone              19

---

tested on: non-tumor-bearing immunocompetent FVB mice; experiment: Biodistribution of lanthanide chloride salts LnCl3 (multiplexed ICP-MS); type: in vivo; details: 1 h p.i., non-tumor-bearing mice
measure: Tissue uptake: Lung (% ID/g)

>>> print(df.to_string())
                                   compound                          target_or_system  value_measured
0  [Cl-].[Cl-].[Cl-].[Eu+3] [[^153Eu]EuCl3]  non-tumor-bearing immunocompetent FVB mice             4.8
1        [Cl][Gd]([Cl])[Cl] [[^157Gd]GdCl3]  non-tumor-bearing immunocompetent FVB mice             4.8
2        [Cl][Lu]([Cl])[Cl] [[^175Lu]LuCl3]  non-tumor-bearing immunocompetent FVB mice             5.6
3        [Cl][Tb]([Cl])[Cl] [[^159Tb]TbCl3]  non-tumor-bearing immunocompetent FVB mice             4.8

---

assay: Biodistribution of Ln-DOTATATE and Ln-DOTA-LM3 (multiplexed ICP-MS); details: female, CD1 nude, mouse, stomach, intravenous, 0.5 nmol, Tissue uptake: Stomach, 1 h p.i., AR42J tumor-bearing mice
Where a SMILES comes first, the peptide text is derived from it. Bridges are numbered along the chain shown (N, C = ends). [ ]: non-standard residue; d: D form. The star is where a group is joined. DOTA = O=C(O)CN1CCN(CC(=O)O)CCN(CC(=O)*)CCN(CC(=O)O)CC1; dPhe(4-NHCONH2) = NC(=O)Nc1ccc(C[C@@H](N)C(=O)O)cc1; Phe(4-Cl) = N[C@@H](Cc1ccc(Cl)cc1)C(=O)O
measure: tissue uptake at 1 h (%ID/g)

compound	measure	unit.symbol	value.measured
C[C@@H](O)[C@@H]1NC(=O)[C@H](CCCCN)NC(=O)[C@@H](Cc2ccc(NC(N)=O)cc2)NC(=O)[C@H](Cc2ccc(O)cc2)NC(=O)[C@H](NC(=O)[C@H](Cc2ccc(Cl)cc2)NC(=O)CN2CCN(CC(=O)O)CCN(CC(=O)O)CCN(CC(=O)O)CC2)CSSC[C@@H](C(=O)N[C@H](Cc2ccc(O)cc2)C(N)=O)NC1=O [[^175Lu]Lu-DOTA-LM3] ({DOTA}-[Phe(4-Cl)][dC]Y[dPhe(4-NHCONH2)]KTC[dY]-NH2; disulfide 2-7 (inferred); C-terminus assumed)	tissue uptake at 1 h	%ID/g	1.3

---

assay: Biodistribution of Ln-DOTATATE and Ln-DOTA-LM3 (multiplexed ICP-MS); conditions: female, CD1 nude, mouse, muscle, intravenous, 0.5 nmol, Tissue uptake: Muscle, 1 h p.i., AR42J tumor-bearing mice
Where a SMILES comes first, the peptide text is derived from it. Bridges are numbered along the chain shown (N, C = ends). [ ]: non-standard residue; d: D form. The star is where a group is joined. DOTA = O=C(O)CN1CCN(CC(=O)O)CCN(CC(=O)*)CCN(CC(=O)O)CC1; dPhe(4-NHCONH2) = NC(=O)Nc1ccc(C[C@@H](N)C(=O)O)cc1; Phe(4-Cl) = N[C@@H](Cc1ccc(Cl)cc1)C(=O)O

compound	tissue uptake at 1 h
C[C@@H](O)[C@@H]1NC(=O)[C@H](CCCCN)NC(=O)[C@@H](Cc2ccc(NC(N)=O)cc2)NC(=O)[C@H](Cc2ccc(O)cc2)NC(=O)[C@H](NC(=O)[C@H](Cc2ccc(Cl)cc2)NC(=O)CN2CCN(CC(=O)O)CCN(CC(=O)O)CCN(CC(=O)O)CC2)CSSC[C@@H](C(=O)N[C@H](Cc2ccc(O)cc2)C(N)=O)NC1=O [[^175Lu]Lu-DOTA-LM3] ({DOTA}-[Phe(4-Cl)][dC]Y[dPhe(4-NHCONH2)]KTC[dY]-NH2; disulfide 2-7 (inferred); C-terminus assumed)	< 0.5 %ID/g

---

test system: non-tumor-bearing immunocompetent FVB mice; experiment: Biodistribution of lanthanide chloride salts LnCl3 (multiplexed ICP-MS); assay type: in vivo; conditions: 24 h p.i., non-tumor-bearing mice
Reported Tissue uptake: Kidneys values are given for each entry in this list.
measure: Tissue uptake: Kidneys (% ID/g)

>>> df
                                   molecule  value_measured
0        [Cl][Lu]([Cl])[Cl] [[^175Lu]LuCl3]             3.7
1        [Cl][Tb]([Cl])[Cl] [[^159Tb]TbCl3]             3.8
2        [Cl][Gd]([Cl])[Cl] [[^157Gd]GdCl3]             4.0
3  [Cl-].[Cl-].[Cl-].[Eu+3] [[^153Eu]EuCl3]             3.8

Data credit: paper PMC11839852
